Each entry below carries its recorded apparent KD of K4 kissing-loop reporter.
# Test system: K4 kissing-loop RNA reporter;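 also: bound reporter read as fluorescence of individual clusters on recovered sequencing chips by microscopy, with normalized cluster intensities fitted with a binding model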
# measurement_protocol: apparent KD of K4 kissing-loop reporter; higher = weaker reporter binding
# run_conditions: Eterna round: R107; input ligand: theophylline 20 uM
Numeric answer only, unit µM assumed.

residue_codes | apparent KD of K4 kissing-loop reporter, µM
CUUGGUCUACGAAGGAGCGCCGUGCAGUGAUGUUGCAGUCAGAUCGAGUGAUGUUUCGGGCGGCAGGUAGGUCGCGUGGCCCUUU [Excusion Arginine B GF 26] | 0.587
AUUCUUUUUUUGAUGUUUUUUGUAUAAUGGCAGGAUAUCGUAGAAGCGAGAAGGGCUUUUAUGCGUUAUGAGUGAUGUUUGUAGG [szeewvmullin] | 0.34
AGGUACUACGGAAGGAGCGCACCAGUGAUGUUGGUGUGUGACCGUGACAUGGCAGUCAAGGUGCAGGUAGGUCGCCGUGGCCUUU [Anatartibe] | 0.122
AUGCCUAUGACGGCCGCCACUGAGAGUCAGUGAUGUUGACUCGAUACAGCUGAUUAGCAGCUAAUCAGGACCGGGUCAUACACAU [Tryp B SS t3] | 0.245
GAUUCUGUUCGAAAGAACGGAAUCUCGGAAGGAGCGAGAGAAAUCUCAGGUAGGUCGCCGAAUUUUUGAUAGUGAUGUUAUCAUU [Arginine A K4 3] | 0.393

Turning to the following sequence.
# input sequence: AAUUCAGUGAUGUUGGAAGGCAGGAGGGAUACCAGCGGAAAUAAACGCCCUUGGCAGCCCAAAUAUCCCAAAUAGAUAAUAAUUU [Same State - Theophylline A (Freestyle 1)] ; wanted: its apparent KD of K4 kissing-loop reporter
0.607

====

# Test system: MS2 coat protein
# measurement_protocol: apparent KD of MS2 coat protein; designed switch direction (-1 OFF switch, 1 ON switch): 1; higher = weaker reporter binding
# run_conditions: input ligand: FMN 200 uM
measured_property: apparent KD of MS2 coat protein (nM)
Numeric answer only, unit nM assumed.

Check out these entries, answers already filled in.
residue_codes | measured_target | apparent KD of MS2 coat protein (nM)
CAGCUCGUGUGAGGAUAUGCCGCCGUUUCGGCUGCAGAAGGUGCUACGUUACAUGAGGAUCACCCAUGUCUCUGUUGUUUCGUC [salish99_SSNG1_r04_962] (Eterna round: R96, puzzle: Same State NG 1) | MS2 coat protein | 28.6
GUUACAUGAGGAUCACCCAUGUAUGUGUGGGAGUAAGUGUCUUAGGAUAUCUAUUAUAUAAAUUAAGAGAAGGAAGAUUGUUGU [JMF's solution 16] (Eterna round: R96, puzzle: Same State NG 3) | MS2 coat protein | 126
UUGAUGAACUGAGGAUAUCGAGUCGUCUCAUUACACAUGAGGAUCACCCAUGUGGGUUGUGGUAUCGAGAAGGCAGAAUACUCA [JR_SSNG2_Sub033] (Eterna round: R96, puzzle: Same State NG 2) | MS2 coat protein | 25.1
GUUAGGAAUCUAGCAAACAUGAGGAUCACCCAUGUAAGUGGGAAGGAUAUGGUACAGAAACUGUACCAGAAGGUCUUAUUGUUU [Omei SS(NG) 3 AV8] (Eterna round: R96, puzzle: Same State NG 3) | MS2 coat protein | 602

Turning to the following sequence.
# input sequence: GGAGCCGGCACUGAGGAUAUUCAUAUUAAAACAUGAGGAUCACCCAUGUAGGCCAGAAGGCCUUGGGAGAAGGCGGGUCGGCCCG [Bibimoar - 3] (Eterna round: R96, puzzle: Same State 2) ; wanted: its apparent KD of MS2 coat protein
22.1

====

# Test system: MS2 coat protein
# measurement_protocol: apparent KD of MS2 coat protein, switch ON state; designed switch direction (-1 OFF switch, 1 ON switch): -1; higher = weaker reporter binding
# run_conditions: FMN input: 0 or 200 uM; Eterna round: R93 (includes R88 designs)
Each entry below carries its recorded apparent KD of MS2 coat protein.
Numeric answer only, unit nM assumed.

Check out these entries, answers already filled in.
residue_codes | apparent KD of MS2 coat protein (nM)
AAACCACAUGAGGAUCACCCAUGUCAGGAUAUGAACGAAAAUAAAUAAAAAUAAAAGUUCAGAAGGGACGAAAA [66%, Wbt, 15] | 39.2
CUCAAGUAAGGAUAUGCAAGAAAAGAAGAGAAAGAAAAGAAGCAGAAGGUACAUGAGGAUCACCCAUGUAAGAA [EteRNA is fun!] | 37.3
AACAGUACAGGAUAUACAUGAGGAUCACCCAUGUGAAAAUUAAGUGGCGAACCACAAAGUAGAAGGGUACUGAA [Mat - Exclusion 3 - Eli mod - D56] | 38.7
AAAGGACGAGGAUAUACAUGAGGAUCACCCAUGUAAAGGGCAUAAUAAAAGAACUUAUGUAGAAGGCGUCCAAA [69%, Moding Meechl, 6] | 79.1
AAACGUUGAGGAUAUACAGAAGGGUAUAAAUCAUAAAAAACACAUGAGGAUCACCCAUGUAGAAGGCAACGAAA | 97.9

# input sequence: AAAAAACAUGAGGAUCACCCAUGUGAGGAUAUUCAAAAAAAAAAAAAAAACACAAGAAGGAGAAGGCACAAAAA [Default title] ; wanted: its apparent KD of MS2 coat protein
29.6

# input sequence: AGCAUGUGAGGAUAUGUGACCCUCGUCCUAAGGAUGAGGAAAUAGAAGGCACAUGAGGAUCACCCAUGUGAUGA [Eratusar] ; wanted: its apparent KD of MS2 coat protein
65.4

====

Each entry below carries its recorded apparent KD of MS2 coat protein.
# Tested on: MS2 coat protein
# measurement_protocol: apparent KD of MS2 coat protein; designed switch direction (-1 OFF switch, 1 ON switch): 1; higher = weaker reporter binding
# run_conditions: input ligand: FMN 200 uM
Numeric answer only, unit nM assumed.

Check out these entries, answers already filled in.
residue_codes | measurement_unit | apparent KD of MS2 coat protein
GAAACAUGACGAGGAUAUGGAACAUGAGGAUCACCCAUGUAUGUUCCAUAACGCGAAUGACGAAUCCAGAAGGCGUCGUGAAAG [Mat - Same State NG 2 - JL mod - D28] (Eterna round: R96, puzzle: Same State NG 2) | nM | 33.6
GUUACAUGAGGAUCACCCAUGUAUGUGUGGGAGUAAGUGUCUUAGGAUAUCUAUUAUGUAAAUUAAGAGAAGGAAGAUUGUUGU [JMF's solution 17] (Eterna round: R96, puzzle: Same State NG 3) | nM | 160

# input sequence: GUUAGGAAUCUAGCAGACAUGAGGAUCACCCAUGUUAGUGGGAAGGAUAUGGUACAGAAACUGUACCAGAAGGUCUUAUUGUUU [Omei SS(NG) 3 AV13] (Eterna round: R96, puzzle: Same State NG 3) ; wanted: its apparent KD of MS2 coat protein
348

# input sequence: GCCAUCGCAUGAGGAUAUGGCACCGAAACGGUGCCAGAAGGCAUGUCGAAAGACAUGAGGAUCACCCAUGUAGUAUAGAUGGCA [Mat - Same State NG 1 - JL mod - D93] (Eterna round: R96, puzzle: Same State NG 1) ; wanted: its apparent KD of MS2 coat protein
222

====

Each entry below carries its recorded apparent KD of MS2 coat protein.
# System: MS2 coat protein
# measurement_protocol: apparent KD of MS2 coat protein; designed switch direction (-1 OFF switch, 1 ON switch): -1; higher = weaker reporter binding
# run_conditions: Eterna round: R95; input ligand: FMN 200 uM
Numeric answer only, unit nM assumed.

Check out these entries, answers already filled in.
residue_codes | apparent KD of MS2 coat protein (nM)
AAGAAACAUGAGGAUCACCCAUGUGAGGAUAUGAAAAAGAAAAGAAAAGAAAGAAUAAUCAGAAGGCACAAAGG [Mat - Mod of Hog D11] (puzzle: Exclusion 1) | 50.7
CCGCAAAUGGAGGAUAUCGUAUCGGAUACGAUACGAGAAGGCCAAACAUGAGGAUCACCCAUGUGUCCUAGCGG [Fiskers Ex 6 - 37] (puzzle: Exclusion 6) | 30

Turning to the following sequence.
Form entry - test system: MS2 coat protein; read-out: apparent KD of MS2 coat protein; sequence: AGUACUAACACGAAAGUGUUAGUACUAUAAGCUUGUGUUACAUGAGGAUCACCCAUGUCCUCAUAAGCUCGUCUUAU [JL-sv3-2.15 mat747 mod] (puzzle: Sensor v3, turn-off variant 2)
86.4

====

# Test system: MS2 coat protein
# measurement_protocol: apparent KD of MS2 coat protein, switch OFF state (with FMN for OFF switches, without FMN for ON switches); designed switch direction (-1 OFF switch, 1 ON switch): 1; higher = weaker reporter binding
# run_conditions: FMN input: 0 or 200 uM; Eterna round: R93 (includes R88 designs)
measured_property: apparent KD of MS2 coat protein (µM)
Numeric answer only, unit µM assumed.

Check out these entries, answers already filled in.
residue_codes | measurement_unit | apparent KD of MS2 coat protein
UUUAAUUAUACGAAGGAUAUCGGUAAUUAGACAUGAGGAUCACCCAUGUUAUAUGGUUCCAUAUUCGAGAAGGUCGCGGGUGAAC [JR_SS002_Sub508] | µM | 0.0193
AAAACACAUGAGGAUCACCCAUGUAGAAAUAUGGGAGGAUAUACGAAAACGAAAGACAAAGUAGAAGGCCUAAAAG [saturn 4] | µM | 0.153
GGGAAGAAGAGAGAGGAUAUCCAAAGGAAAACAUGAGGAUCACCCAUGUAAAAGGAAGGAAAUUGGGAGAAGGCUCAAAAGAGGA [salish99-ss2-025] | µM | 0.0516
GAAGAACAUGAGGAUCACCCAUGUGUAGAAGCAUGAGGAUAUGUAAGUCAAAGAAAAACGAUAGAAGGCAUGGAGA [JR_SS001_Sub1714] | µM | 0.119
GAUAAACAUGAGGAUCACCCAUGUAGAUAUAUGGGAGGAUAUACAAAGACGAUAGUCAAAGUAGAAGGCCUAAAAG [77%, Mat - Mod of Eli - With 3 more U's] | µM | 0.0792
AGAAAUAAAACACAGGAUAUCCAAAAGAAAACAUGAGGAUCACCCAUGUAAAAUAAAAUAAAAUGGGAGAAGGGUGAAAAUAAGA [Mat - Same State 2 - JL mod - D5] | µM | 0.0502

# input sequence: AUAAAACAUGAGGAUCACCCAUGUAGAAAUAUGGGAGGAUAUACGAAGACGAAAGUCAAAGUAGAAGGCCUAAAAG [Mat - Same State 1 - Meechl mod - D115] ; wanted: its apparent KD of MS2 coat protein
0.0836

# input sequence: GAAAAACAUGAGGAUCACCCAUGUAGAAAUAUGGGAGGAUAUACGAAGACGAAAGUCAAAGUAGAAGGCCUAAGAA [Mat - Same State 1 - Eli mod - D109] ; wanted: its apparent KD of MS2 coat protein
0.0878

# input sequence: AACAAUCUAUCUGAGGAUAUCAUGAAAAAAACAUGAGGAUCACCCAUGUGCAGGAAAACUGCAUAUGAGAAGGCAGAUAGAUUGA [SS2: 1101] ; wanted: its apparent KD of MS2 coat protein
0.913

# input sequence: AGAAAUAAAAGGCAGGAUAUCCAAAAAAAAACAUGAGGAUCACCCAUGUAAAAAAAAAAAAAAUGGGAGAAGGGCCAAAUAAAGA [Mat - Same State 2 - Eli mod - D88] ; wanted: its apparent KD of MS2 coat protein
0.0375

# input sequence: AUAAGACAUGAGGAUCACCCAUGUAUAAGAGCAUGAGGAUAUAUAAAAAGAAAAAGGAGAAUAGAAGGCAUAGUUG [JR_SS001_Sub1221] ; wanted: its apparent KD of MS2 coat protein
0.107

# input sequence: GAAAAACAUGAGGAUCACCCAUGUGAAAAUAUGGGAGGAUAUACGAAGACGAAAGUCAAAGUAGAAGGCCUAAAAG [Garnet 31] ; wanted: its apparent KD of MS2 coat protein
0.0879
